Reported Pharmacophore torsion angle a(O1, O2, N2, CA3) is given for each of the following molecules.
Target: MASP-2 CCP2-SP (Homo sapiens (Human))
Sequence (O00187 445-686): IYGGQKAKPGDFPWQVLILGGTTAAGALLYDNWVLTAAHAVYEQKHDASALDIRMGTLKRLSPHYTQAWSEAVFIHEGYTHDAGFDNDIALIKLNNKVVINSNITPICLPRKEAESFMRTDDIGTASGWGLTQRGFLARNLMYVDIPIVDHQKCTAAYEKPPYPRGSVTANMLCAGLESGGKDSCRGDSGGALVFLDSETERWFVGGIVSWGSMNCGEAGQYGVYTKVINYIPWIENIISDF
Sequence (O00187 364-432 partner): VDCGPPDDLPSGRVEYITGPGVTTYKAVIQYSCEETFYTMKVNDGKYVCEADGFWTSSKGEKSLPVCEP
Assay: MASP-2 co-crystallization, X-ray crystallography and structure analysis (H-bonds, van der Waals contacts)
Conditions: Table A7-2; between pharmacophore elements of the bound compound
endpoint label: Pharmacophore torsion angle a(O1, O2, N2, CA3)

| molecule | result number |
| --- | --- |
| C[C@H](NC(=O)[C@@H](CCc1ccccc1)NCCCc1ccc(O)cc1)C(=O)NCc1ccc(C(=N)N)cc1.Cl.Cl | −15.65 |
| CC(=O)Nc1ccc(CCNC(CCc2ccccc2)C(=O)NC(C)C(=O)NCc2ccc(C(=N)N)cc2)cc1.Cl.Cl (centres unmarked) [1345_1] | −27.29 |
| CC(=O)Nc1ccc(CCNC(CCc2ccccc2)C(=O)NC(C)C(=O)NCc2ccc(C(=N)N)cc2)cc1.Cl.Cl (centres unmarked) [1345_2] | −34.52 |
| CC(NC(=O)C(CCc1ccccc1)NCCCc1ccc(O)cc1)C(=O)NCc1ccc(C(=N)N)cc1.Cl.Cl (centres unmarked) | −15.65 |
| CC(NC(=O)C(CCc1ccccc1)NCc1ccc(C(=O)N2CCOCC2)cc1)C(=O)NCc1ccc(C(=N)N)cc1.Cl.Cl (centres unmarked) | 24.87 |

These entries and their values trace back to patent US12195427B2.
